Tested on: U87MG pLVX-IDH2 R140Q-neo cells
ASSAY SUMMARY: U87MG pLVX-IDH2 R140Q-neo cell based assay, 2-HG by LC-MS
MEASUREMENT PARAMETERS: Homo sapiens, U-87 MG
PARAMETER: IC50

Please review the entries below; each comes with its answer.
# COMPOUND, IC50
records = [
    ("Clc1cccc(-c2nc(NC3[C@H]4COC[C@@H]34)nc(NC3[C@H]4COC[C@@H]34)n2)n1 (stereo partly shown)", "50 to 100 nM"),
    ("C[C@H](Nc1nc(Nc2ccnc(C3(C#N)CC3)c2)nc(-c2cccc(C(C)(F)F)n2)n1)C(F)(F)F", "< 50 nM"),
    ("Clc1cccc(-c2nc(NC(C3CC3)C3CC3)nc(NC(C3CC3)C3CC3)n2)n1", "< 50 nM"),
    ("C[C@@H](Nc1nc(Nc2ccnc(C(F)(F)F)c2)nc(-n2ccc(C(F)(F)F)n2)n1)C(F)(F)F", "< 50 nM"),
    ("FC1(F)CC[C@@H](Nc2nc(Nc3ccnc(C(F)(F)F)c3)nc(-c3cccc(C(F)(F)F)n3)n2)C1", "< 50 nM"),
    ("CC(C)(O)CNc1nc(Nc2ccnc(C3(C#N)CC3)c2)nc(-c2cccc(C(F)(F)F)n2)n1", "< 50 nM"),
    ("FC(F)c1ccnc(-c2nc(NC3CCC(F)(F)C3)nc(NC3CCC(F)(F)C3)n2)n1 (stereo not shown)", "50 to 100 nM"),
    ("FC(F)(F)c1cc(Nc2nc(NCC3CC3)nc(-c3nc(C(F)(F)F)cs3)n2)ccn1", "< 50 nM"),
]

# IC50 lookup, item C[C@H](Nc1nc(Nc2ccnc(C(F)(F)F)c2)nc(-n2ccc(C(F)(F)F)n2)n1)C(F)(F)F
< 50 nM

# IC50 lookup, item N#Cc1cc(Nc2nc(NC3CCC(F)(F)CC3)nc(-c3cccc(C(F)(F)F)n3)n2)ccn1
< 50 nM

# IC50 lookup, item FC(F)(F)c1cccc(-c2nc(NCC3CC3)nc(NCC3CC3)n2)n1
< 50 nM

# IC50 lookup, item FC1(F)CC(Nc2nc(NC3CC(F)(F)C3)nc(-c3cncc(C(F)(F)F)n3)n2)C1
< 50 nM

# IC50 lookup, item FC(F)(F)CNc1nc(Nc2ccnc(C(F)(F)F)c2)nc(-c2cccc(C(F)(F)F)n2)n1
< 50 nM

# IC50 lookup, item FC1(F)CCC(Nc2nc(NC3CCC(F)(F)CC3)nc(-c3csc(C(F)(F)F)n3)n2)CC1
< 50 nM

# IC50 lookup, item FC(F)(F)c1cccc(-c2nc(NCC3CC3)cc(NCC3CC3)n2)n1
100 to 1000 nM

# IC50 lookup, item FC1(F)CCC(Nc2nc(Nc3cncc(C(F)(F)F)c3)nc(-c3cccc(C(F)(F)F)n3)n2)C1 (stereo not shown)
< 50 nM

====

The following molecules are shown together with reported pIC50 values.
TARGET OR TEST SYSTEM: IDH1-R132H homodimer enzyme (Homo sapiens (Human), UniProt O75874, R132H)
ASSAY SUMMARY: In vitro assay IDH1-R132H homodimer, NADPH depletion assay with NADPH/NADP preincubation
MEASUREMENT PARAMETERS: 5 μM NADPH and 37.5 μM NADP
pIC50: −log10 of the molar value.

Please review the entries below; each comes with its answer.
# MOLECULE, TARGET OR TEST SYSTEM, pIC50
measured = [
    ("C[C@@H](Nc1nc(NC2C3CC4CC(C3)CC2C4)nc(-c2cccc(C(F)(F)F)n2)n1)C1CC1 (stereo partly shown)", "IDH1-R132H homodimer enzyme (Homo sapiens (Human), UniProt O75874, R132H)", "6.00 to 7.00"),
    ("FC1(F)CCC(Nc2nc(NC3CCC(F)(F)C3)nc(-n3ccc(C(F)(F)F)n3)n2)C1 (stereo not shown)", "IDH1-R132H homodimer enzyme (Homo sapiens (Human), UniProt O75874, R132H)", "> 7.30"),
    ("Nc1ccc(F)c(-c2nc(NC3CCC(F)(F)CC3)nc(NC3CCC(F)(F)CC3)n2)n1", "IDH1-R132H homodimer enzyme (Homo sapiens (Human), UniProt O75874, R132H)", "< 6.00"),
    ("FC1(F)CC[C@H](Nc2nc(Nc3ccnc(C(F)(F)F)c3)nc(-n3ccc(C(F)(F)F)n3)n2)C1", "IDH1-R132H homodimer enzyme (Homo sapiens (Human), UniProt O75874, R132H)", "7.00 to 7.30"),
    ("C[C@@H](Nc1nc(Nc2ccnc(C3(C#N)CC3)c2)nc(-c2cccc(Cl)n2)n1)C1CC1", "IDH1-R132H homodimer enzyme (Homo sapiens (Human), UniProt O75874, R132H)", "> 7.30"),
]

# pIC50 lookup, item N#CC1(c2cc(Nc3nc(NC4CC(F)(F)C4)nc(-n4ccc(C(F)(F)F)n4)n3)ccn2)CC1
> 7.30

# pIC50 lookup, item FC1(F)CCC(Nc2nc(Nc3ccnc(C(F)(F)F)c3)nc(-c3cccc(Cl)n3)n2)C1 (stereo not shown)
> 7.30

# pIC50 lookup, item FC1(F)CCC(Nc2nc(NC3CCC(F)(F)CC3)nc(-c3nccc(C(F)(F)F)n3)n2)CC1
< 6.00

# pIC50 lookup, item FC1(F)CC[C@H](Nc2nc(Nc3ccnc(C(F)(F)F)c3)nc(-c3cccc(C(F)(F)F)n3)n2)C1
7.00 to 7.30

# pIC50 lookup, item FC(F)c1cncc(-c2nc(NC3CCC(F)(F)CC3)nc(NC3CCC(F)(F)CC3)n2)n1
6.00 to 7.00

# pIC50 lookup, item FC1(F)CCC(Nc2nc(NC3CCC(F)(F)CC3)nc(-c3nc(-c4ccccc4)ns3)n2)CC1
< 6.00

# pIC50 lookup, item CC(C)(C#N)CNc1nc(Nc2ccnc(C(C)(F)F)c2)nc(-c2cccc(C(F)(F)F)n2)n1
< 6.00

====

Test system: HT1080 cells
ASSAY SUMMARY: Cellular assay for IDH1m R132C inhibitors, 2-HG by LC-MS in HT1080 cells
Assay type: cell-based
MEASUREMENT PARAMETERS: Homo sapiens, HT-1080
The following compounds are shown together with reported IC50 values.

# IC50 lookup, item FC1(F)CCC(Nc2nc(NC3CN(c4ccccn4)C3)nc(-c3cccc(C(F)(F)F)n3)n2)C1 (centres unmarked)
100 to 1000 nM

# IC50 lookup, item CC(C)(O)CNc1nc(NC2CCC(F)(F)CC2)nc(-c2cccc(C(F)(F)F)n2)n1
> 1000 nM

# IC50 lookup, item C[C@H](Nc1nc(N[C@@H](C)C(F)(F)F)nc(-c2cccc(Cl)n2)n1)C(F)(F)F
< 50 nM

# IC50 lookup, item C[C@H](Nc1nc(N[C@H](C)C(F)(F)F)nc(-c2cccc(Cl)n2)n1)C(F)(F)F
< 50 nM

# IC50 lookup, item C[C@@H](Nc1nc(Nc2ccnc(C3(C#N)CC3)c2)nc(-c2cncc(C(F)(F)F)n2)n1)C(F)(F)F
100 to 1000 nM

====

TARGET OR TEST SYSTEM: IDH2 R140Q (Homo sapiens (Human), UniProt P48735, R140Q)
Sequence (P48735 40-452 R140Q): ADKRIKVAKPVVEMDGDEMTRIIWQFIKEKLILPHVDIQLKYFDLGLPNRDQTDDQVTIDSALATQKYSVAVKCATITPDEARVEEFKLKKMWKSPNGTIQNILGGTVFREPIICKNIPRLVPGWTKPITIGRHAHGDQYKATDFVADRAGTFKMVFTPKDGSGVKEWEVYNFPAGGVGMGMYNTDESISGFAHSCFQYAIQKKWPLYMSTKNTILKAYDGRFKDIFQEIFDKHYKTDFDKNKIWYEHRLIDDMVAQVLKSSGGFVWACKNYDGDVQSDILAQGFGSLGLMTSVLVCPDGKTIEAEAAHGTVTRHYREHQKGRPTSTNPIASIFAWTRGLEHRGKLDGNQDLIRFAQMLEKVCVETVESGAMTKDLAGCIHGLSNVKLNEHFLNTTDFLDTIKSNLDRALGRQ
ASSAY SUMMARY: In vitro assay for IDH2m R140Q inhibitors, cofactor depletion assay
Type: biochemical
MEASUREMENT PARAMETERS: IDH2 R140Q enzyme
The following compounds are shown together with reported IC50 values.

Please review the entries below; each comes with its answer.
# COMPOUND, IC50
measured = [
    ("FC1(F)CCC(Nc2nc(NC3CCC(F)(F)C3)nc(-c3cccc(C(F)(F)F)n3)n2)CC1 (stereo not drawn)", "< 50 nM"),
    ("CC(C)(O)CNc1nc(Nc2cc(F)cc(F)c2)nc(-c2nccc(C(F)(F)F)n2)n1", "< 50 nM"),
]

Let us move to another entry and its IC50.
# IC50 lookup, item FC1(F)CC(Nc2nc(NC3CC(F)(F)C3)nc(-n3ccc(C(F)(F)F)n3)n2)C1
< 50 nM

====

TARGET OR TEST SYSTEM: IDH1-R132 homodimer enzyme (R132H) (Homo sapiens (Human), UniProt O75874, R132H)
Sequence (O75874 whole entry R132H): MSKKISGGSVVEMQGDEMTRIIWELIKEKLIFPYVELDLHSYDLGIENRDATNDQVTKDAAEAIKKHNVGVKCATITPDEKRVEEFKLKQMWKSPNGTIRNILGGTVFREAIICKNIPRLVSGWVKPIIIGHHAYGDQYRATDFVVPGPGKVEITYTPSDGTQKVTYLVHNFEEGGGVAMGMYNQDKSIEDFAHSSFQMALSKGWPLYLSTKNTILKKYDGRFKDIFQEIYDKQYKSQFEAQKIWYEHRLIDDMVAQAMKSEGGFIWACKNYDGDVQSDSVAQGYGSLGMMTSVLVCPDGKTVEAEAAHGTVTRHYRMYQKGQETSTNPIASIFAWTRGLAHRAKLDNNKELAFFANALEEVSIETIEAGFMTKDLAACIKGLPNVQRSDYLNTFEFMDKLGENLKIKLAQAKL
ASSAY SUMMARY: In vitro assay IDH1-R132H homodimer, NADPH depletion assay
Assay type: biochemical
Experimental: The following describes the experimental procedures that can be used to obtain data on columns 3 and 6 of Table 4. A test compound is prepared as 10 mM stock in DMSO and diluted to 50× final concentration in DMSO, for a 50 μl reaction mixture. IDH enzyme activity converting alpha-ketoglutarate to 2-hydroxyglutaric acid is measured using a NADPH depletion assay. […]
pIC50: −log10 of the molar value.
The following compounds are shown together with reported pIC50 values.

Please review the entries below; each comes with its answer.
# MOL, pIC50
rows = [
    ("C[C@@H](Nc1nc(N[C@H]2CCC[C@H]2O)nc(-c2cccc(C(F)(F)F)n2)n1)C1CC1", "6.00 to 7.00"),
    ("C[C@@H](Nc1nc(N[C@@H]2C[C@H]2c2ccccc2)nc(-c2cccc(C(F)(F)F)n2)n1)C1CC1", "7.00 to 7.30"),
    ("CC(C)[C@H](C)Nc1nc(N[C@@H](C)C(C)C)nc(-c2cccc(C(F)(F)F)n2)n1", "7.00 to 7.30"),
]

Let us move to another entry and its pIC50.
State its pIC50 on IDH1-R132 homodimer enzyme (R132H) (Homo sapiens (Human), UniProt O75874, R132H): C[C@@H](Nc1nc(N[C@H](C)C2CC2)nc(-c2cccc(C(F)(F)F)n2)n1)C(=O)N(C)C
< 6.00
